- System: MRS 33591
- ASSAY_NOTES: IC50, MIC and MBC against MRS 33591
- Type: cell-based, Staphylococcus aureus
- MEASUREMENT_CONTEXT: Staphylococcus aureus
- Protocol: As used herein, the term “minimum inhibitory concentration (MIC)” refers to the lowest concentration of an antimicrobial agent that will inhibit the visible growth of a microorganism after overnight incubation. MIC values against bacteria may be determined by standard methods. […]

{"columns": ["COMPOUND", "COMPARATIVE_SIGN", "MBC / µM"],
 "data": [
  ["CCCCCc1cc(O)c(C/C=C(\\C)CCC=C(C)C)c(O)c1 [CBG, Cannabigerol]", "=", 11.8],
  ["CCCCCc1cc(O)c2c(c1)OC(C)(C)c1ccc(C)cc1-2 [CNB, Cannabinol]", "=", 13.4],
  ["C/C(=C\\C(=O)OCCCCCCCCC(=O)O)C[C@@H]1OC[C@H](C[C@@H]2O[C@H]2[C@@H](C)[C@H](C)O)[C@@H](O)[C@H]1O [Mupirocin, reference compound]", "=", 4.15],
  ["COc1cccc(OC)c1C(=O)N[C@@H]1C(=O)N2[C@@H]1SC(C)(C)[C@@H]2C(=O)O [Methicillin, reference compound]", ">", 131]
]}
